- systemName: T1, IL-2Rβγ on HEK-Blue IL-2Rβγ reporter cells (InvivoGen) (UniProt P14784 27-551; P31785 23-369, limits assumed)
- T1 sequence (looked up) 1: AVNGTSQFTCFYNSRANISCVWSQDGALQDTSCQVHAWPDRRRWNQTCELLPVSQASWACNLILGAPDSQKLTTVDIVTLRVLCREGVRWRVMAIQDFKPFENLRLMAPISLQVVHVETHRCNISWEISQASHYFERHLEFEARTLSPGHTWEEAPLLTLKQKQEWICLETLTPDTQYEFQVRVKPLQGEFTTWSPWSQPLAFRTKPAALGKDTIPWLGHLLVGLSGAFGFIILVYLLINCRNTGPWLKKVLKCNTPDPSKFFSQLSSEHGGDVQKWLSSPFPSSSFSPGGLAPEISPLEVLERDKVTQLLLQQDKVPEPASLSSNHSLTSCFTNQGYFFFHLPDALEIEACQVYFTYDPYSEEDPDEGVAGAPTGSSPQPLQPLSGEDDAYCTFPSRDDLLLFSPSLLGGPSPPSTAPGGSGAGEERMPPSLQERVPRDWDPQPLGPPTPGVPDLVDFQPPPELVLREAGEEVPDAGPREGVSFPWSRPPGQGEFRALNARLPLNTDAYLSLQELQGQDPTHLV
- T1 sequence (looked up) 2: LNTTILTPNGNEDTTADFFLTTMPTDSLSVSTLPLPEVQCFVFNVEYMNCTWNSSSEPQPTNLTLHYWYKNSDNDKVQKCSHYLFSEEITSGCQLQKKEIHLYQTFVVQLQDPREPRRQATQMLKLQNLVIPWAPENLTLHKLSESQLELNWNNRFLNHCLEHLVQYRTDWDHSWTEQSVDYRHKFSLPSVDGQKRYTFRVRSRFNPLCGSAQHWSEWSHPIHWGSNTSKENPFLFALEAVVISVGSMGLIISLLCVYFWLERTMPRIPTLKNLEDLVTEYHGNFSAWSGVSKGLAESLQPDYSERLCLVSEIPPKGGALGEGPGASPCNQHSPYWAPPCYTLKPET
- test: cell-based or functional assay
Bridges are numbered along the chain shown (N, C = ends). Primed or numbered codes have the meaning given here. [ ]: non-standard residue; d: D form. 8x polyethylene glycol‑amino = O-(8x polyethylene glycol-amino)-tyrosine, SITE 45; 9x polyethylene glycol‑azido = O-(9x polyethylene glycol-azido)-tyrosine, SITE 42; Ygp(4) = Tyr with amino-capped PEG8 (O-(8x polyethylene glycol-amino)-tyrosine); Yn3(4) = Tyr with azide-capped PEG9 (O-(9x polyethylene glycol-azido)-tyrosine); Ygp = O-(8x polyethylene glycol-amino)-tyrosine (Tyr, amino-capped PEG8); Yn3 = O-(9x polyethylene glycol-azido)-tyrosine (Tyr, azide-capped PEG9); Ygp″ = O-(8x polyethylene glycol-amino)-tyrosine; Yn3″ = O-(9x polyethylene glycol-azido)-tyrosine; Ygp(6) = Tyr, amino-capped PEG8; Yn3(6) = Tyr, azide-capped PEG9; PEG4′ = 4x polyethylene glycol; hSer = N[C@@H](CCO)C(=O)O; Nle = CCCC[C@H](N)C(=O)O
Average EC50, HEK-Blue IL-2R (CD122+, CD132+) Reporter Assay, intact molecule reference
# value in nM; strip the unit string

Record excerpt, results attached:
binder	unitString	measValue
CMP-330 (ligand, bridge 9-23; not fully specified (bridges)) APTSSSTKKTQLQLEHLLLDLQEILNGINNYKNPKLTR[Nle]L[hSer]Y(9x polyethylene glycol‑azido)KFY(8x polyethylene glycol‑amino)[Nle]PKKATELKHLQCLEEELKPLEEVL[hSer]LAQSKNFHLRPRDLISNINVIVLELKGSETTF[hSer]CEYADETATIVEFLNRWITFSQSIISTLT	nM	1.73
CMP-304 (ligand, bridge N-29; not fully specified (N-terminus, bridges); ends not checked) PLGLAGAPTSSSTKKTQLQLEHLLLDLQEILNGINNYKNPKLTR[Nle]L[hSer][Yn3(4)]KF[Ygp(4)][Nle]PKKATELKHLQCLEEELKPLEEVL[hSer]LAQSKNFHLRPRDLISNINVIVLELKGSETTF[hSer]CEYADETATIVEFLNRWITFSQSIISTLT	nM	0.34
CMP-300 (ligand, lactam N-31; ends not checked) GPLGLAG[PEG4′]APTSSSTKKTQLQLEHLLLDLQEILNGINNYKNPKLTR[Nle]L[hSer][Yn3″]KF[Ygp″][Nle]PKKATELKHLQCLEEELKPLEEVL[hSer]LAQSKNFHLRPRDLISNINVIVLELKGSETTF[hSer]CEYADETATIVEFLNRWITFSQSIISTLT	nM	0.711
CMP-319 (ligand, lactam N-33; ends not checked) RGRRVANLVGAPTSSSTKKTQLQLEHLLLDLQEILNGINNYKNPKLTR[Nle]L[hSer][Yn3]KF[Ygp][Nle]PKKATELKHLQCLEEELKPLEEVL[hSer]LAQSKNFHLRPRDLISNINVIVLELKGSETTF[hSer]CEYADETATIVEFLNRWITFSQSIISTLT	nM	1.05
CMP-303 (ligand, bridge N-29; not fully specified (N-terminus, bridges); ends not checked) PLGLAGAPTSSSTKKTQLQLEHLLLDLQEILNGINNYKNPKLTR[Nle]L[hSer][Yn3″]KF[Ygp″][Nle]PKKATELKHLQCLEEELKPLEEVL[hSer]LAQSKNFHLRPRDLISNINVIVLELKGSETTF[hSer]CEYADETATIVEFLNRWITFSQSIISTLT	nM	0.521
CMP-315 (ligand, ends and bridges not checked; also: further groups not given here) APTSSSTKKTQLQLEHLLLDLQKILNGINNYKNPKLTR[Nle]L[hSer][Yn3(4)]KF[Ygp(4)][Nle]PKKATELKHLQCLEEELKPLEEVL[hSer]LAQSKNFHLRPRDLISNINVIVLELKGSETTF[hSer]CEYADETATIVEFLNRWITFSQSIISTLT	nM	0.0554

Problem: State the recorded Average EC50, HEK-Blue IL-2R (CD122+, CD132+) Reporter Assay, intact molecule for this entry: CMP-321 (ligand, lactam N-32) SGRVQPLVDAPTSSSTKKTQLQLEHLLLDLQEILNGINNYKNPKLTR[Nle]L[hSer][Yn3(6)]KF[Ygp(6)][Nle]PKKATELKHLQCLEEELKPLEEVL[hSer]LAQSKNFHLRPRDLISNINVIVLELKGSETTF[hSer]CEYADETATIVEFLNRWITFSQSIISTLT
Result: 4.2
